assay: Bmi1-luciferase reporter activators in mESC, dose response, esBAF inhibitor project, mouse embryonic stem cells, cherry-pick (AID 651717); conditions: firefly/renilla ratio, 24 h, stronger effect = higher value; at 35 µM unless noted;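 also: luciferase knocked into Bmi1 locus with EF-1a renilla as cell number control; rising ratio signals esBAF inhibition which derepresses Bmi1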
In all, about 1,200 compounds went through this assay and about 950 (79%) were called active. The set was probably picked from earlier hits. The list is a sample of the results. Potency and affinity values are given separately.
resultType: max activity

Examples from the recorded data:
| compound | result |
| --- | --- |
| O=C1NC[C@H](c2ccccc2)OC(=O)[C@@H](Cc2ccc(F)cc2)C/C=C\C[C@H]1CC(=O)N(CCO)Cc1ccccc1 | 25.5% (inactive) |
| C[C@H](CO)N1C[C@H](C)[C@@H](CN(C)C(=O)Nc2ccc3c(c2)OCO3)Oc2c(NS(=O)(=O)c3cn(C)cn3)cccc2C1=O | 30.6% (inactive) |
| C[C@@H]1CN([C@H](C)CO)C(=O)c2cccc(NC(=O)Nc3ccc4c(c3)OCO4)c2O[C@H]1CN(C)Cc1ccccc1 | 36.6% [at 0.26 µM] (inactive) |

Form field: reported max activity of `C[C@H]1CN([C@@H](C)CO)C(=O)c2cc(NC(=O)Cc3ccccc3)ccc2O[C@H]1CN(C)C(=O)Nc1ccc2c(c1)OCO2` 21% [at 0.5 µM] (inactive)

Continue with `C[C@H](CO)N1C[C@H](C)[C@H](CN(C)C(=O)Nc2ccc3c(c2)OCO3)Oc2c(NS(=O)(=O)c3ccccc3)cccc2C1=O` -12.7% (inactive)

Please answer likewise for `Cc1cc(C)n2nc(SCc3nnc(SCc4ccccc4C)s3)nc2n1` 26.5% (inactive)

// repeat for COc1ccc(S(=O)(=O)N2Cc3ccccc3CC2C(=O)Nc2ccc3c(c2)OCO3)cc1 (centres undefined) and report 17% [at 4.2 µM] (inactive)

Then what about the compound `CC(C)NC(=O)N(C)C[C@@H]1OCCCC[C@H](C)Oc2ccc(NC(=O)Nc3ccc4c(c3)OCO4)cc2C(=O)N([C@H](C)CO)C[C@@H]1C` ? 11.4% [at 0.5 µM] (inactive)

Can you check CC=Cc1ccc2n(c1=O)C[C@@H]1[C@@H](CO)[C@H](C(=O)Nc3ccc(-c4ccccc4)cc3)N(C)[C@H]21 (mixture of isomers) next? -24.6% (inactive)

====

Recorded max activity values for a group of compounds are listed next.
assay: Bmi1-luciferase reporter activators in mESC, dose response, esBAF inhibitor project, mouse embryonic stem cells, cherry-pick (AID 651717); details: firefly/renilla ratio, 24 h, stronger effect = higher value; at 35 µM unless noted;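 also: luciferase knocked into Bmi1 locus with EF-1a renilla as cell number control; rising ratio signals esBAF inhibition which derepresses Bmi1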
The whole screen tested about 1,200 compounds, of which about 950 (79%) were called active. The set was probably picked from earlier hits. These entries were drawn from the full list. Entries with a potency or affinity are not part of this list.

| compound | result |
| --- | --- |
| Cc1ccc2c(c1)Sc1ccccc1CC2=O | 16.2% (inactive) |
| COc1cccc(CN(C(=O)c2cc3ccccc3oc2=O)C2CC2)c1 | 35% [at 8 µM] (inactive) |
| CO[C@@H]1CN(C)C(=O)c2ccc(NC(=O)c3nc4ccccc4s3)cc2OC[C@@H](C)N(Cc2cncnc2)C[C@H]1C | 21% [at 16 µM] (inactive) |
| CC(=O)N(C)c1ccc(NCc2cc(=O)oc3cc(C)c(O)cc23)cc1 | 19.2% (inactive) |
| C[C@@H]1CN([C@H](C)CO)C(=O)c2cccc(NC(=O)Nc3ccc4c(c3)OCO4)c2O[C@H]1CN(C)S(=O)(=O)c1cccs1 | 36.7% [at 1 µM] (inactive) |

For the compound `C[C@H]1CN([C@@H](C)CO)C(=O)Cc2cc(NC(=O)C3CCCCC3)ccc2O[C@@H]1CN(C)C(=O)Nc1ccc2c(c1)OCO2` , what max activity is on record? -4.16% [at 2.1 µM] (inactive)

Another compound to check: `Cc1ccc(S(=O)(=O)Nc2cccc3c2O[C@H](CN(C)C(=O)Nc2ccc4c(c2)OCO4)[C@@H](C)CN([C@H](C)CO)C3=O)cc1` -41% [at 16 µM] (inactive)

Moving on to the next compound: `C[C@H](CO)N1C[C@H](C)[C@H](CN(C)C(=O)Nc2ccc3c(c2)OCO3)OCc2ccccc2-c2c(n(C)c3ccccc23)C1=O` -46.6% (inactive)

Numbers sourced from PubChem BioAssay AID651717.
